Tested on: NHBE cells
test.summary: Biolog metabolic array: substrate use by NHBE cells with or without CA09 infection
Format: cell-based, human
particulars: Virus: CA09-infected NHBE cells, MOI 1; Biolog PMM2; 3 hr
// NB: equality with 1 counts as -1; only 590 nm absorbance normalized to zero hour (substrate use), 3 hr strictly below is 1

Look over these answered cases.
{"compound": "COC(=O)CCC(=O)O [Mono Methyl Succinate]", "label.value": -1}
{"compound": "O=C[C@H](O)[C@@H](O)[C@H](O)[C@H](O)CO [D-(+)-Glucose]", "label.value": -1}
{"compound": "O[C@H]1[C@H](O)[C@@H](O)[C@H](O)[C@@H](O)[C@H]1O", "label.value": 1}

Consider O=C(O)CCC(=O)O . Does its 590 nm absorbance normalized to zero hour (substrate use), 3 hr lie strictly below 1?
-1

Identify whether the compound OC[C@@H]1OC(O)[C@@H](O)[C@H](O)[C@H]1O (stereo partly shown) records 590 nm absorbance normalized to zero hour (substrate use), 3 hr below 1.
1

Below 1 on 590 nm absorbance normalized to zero hour (substrate use), 3 hr? Entry OC[C@@H](O)[C@@H](O[C@H]1O[C@H](CO)[C@@H](O)[C@H](O)[C@H]1O)[C@H](O)[C@@H](O)CO
-1

Please check: 590 nm absorbance normalized to zero hour (substrate use), 3 hr for CO[C@H]1O[C@H](CO)[C@H](O)[C@H](O)[C@H]1O [a-Methyl-D-Galactoside] , strictly under 1 or not?
-1

Would you kindly verify if 590 nm absorbance normalized to zero hour (substrate use), 3 hr of CC(=O)C(C)O (stereo not shown) [3-Hydroxy 2-Butanone] is strictly less than 1?
-1

Report whether reported 590 nm absorbance normalized to zero hour (substrate use), 3 hr is lower than 1 (strictly) for CC(=O)C(=O)O
1

Would you kindly verify if 590 nm absorbance normalized to zero hour (substrate use), 3 hr of C[C@@H](O)CC(=O)O [b-Hydroxy-Butyric Acid] is strictly less than 1?
-1
